Would you kindly list viability, T/C for each of these compounds?
System: 156681-154-R-J1-PDC complex spheroid viability;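 further: spheroids exposed to the agents for seven days; 100% = DMSO vehicle control viability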
method.summary: Anticancer human tumor 156681-154-R-J1-PDC patient-derived melanoma cell line growth inhibition [CLK]
conditions.used: second compound 1 µM; first compound 0.3 µM; hits give low values
Numbers only, in %.

Here's what some known entries look like.
NC(=O)C(=Cn1cnc(-c2cc(C(F)(F)F)cc(C(F)(F)F)c2)n1)c1cncnc1 + CNC(=O)c1ccc(Nc2nc(OC3CCCC3)c3c(-c4ccc5nc(C)oc5c4)c[nH]c3n2)c(OC)c1    1.43
CC(C)CC(NC(=O)C(Cc1ccccc1)NC(=O)c1cnccn1)B(O)O (stereo unspecified) + CNC(=O)c1ccc(Nc2nc(OC3CCCC3)c3c(-c4ccc5nc(C)oc5c4)c[nH]c3n2)c(OC)c1    1.63
NC(=O)C(=Cn1cnc(-c2cc(C(F)(F)F)cc(C(F)(F)F)c2)n1)c1cncnc1 + CN1CCN(c2cc(C(=O)Nc3cc4cc(-c5cnn(C)c5)ccc4cn3)ccn2)CC1    0.39
C=CC(=O)Nc1cc(Nc2nccc(-c3cn(C)c4ccccc34)n2)c(OC)cc1N(C)CCN(C)C + CNC(=O)c1ccc(Nc2nc(OC3CCCC3)c3c(-c4ccc5nc(C)oc5c4)c[nH]c3n2)c(OC)c1    43.6
C=CC(=O)Nc1cc(Nc2nccc(-c3cn(C)c4ccccc34)n2)c(OC)cc1N(C)CCN(C)C + CN1CCN(c2cc(C(=O)Nc3cc4cc(-c5cnn(C)c5)ccc4cn3)ccn2)CC1    1.38

Okay, next one:
Ask: Which value of viability, T/C has been reported for CC(C)CC(NC(=O)C(Cc1ccccc1)NC(=O)c1cnccn1)B(O)O (stereo unspecified) + CN1CCN(c2cc(C(=O)Nc3cc4cc(-c5cnn(C)c5)ccc4cn3)ccn2)CC1 in the records?
Reply: 0.12
